Test description: Clearance in Sprague-Dawley rat at 2 mg/kg, iv measured upto 24 hrs
Format: ADME, organism-based
Condition label: in vivo
Measurement kind: clearance (mL/min/kg)

stdin: Find the recorded clearance belonging to O=C(N/N=C/c1ccc([N+](=O)[O-])s1)c1ccc(OCCCCCCN2CCCCC2)cc1 and report it.
stdout: 92.8

stdin: Consider next the compound O=C(N/N=C/c1ccc([N+](=O)[O-])o1)c1ccc(OCCCCCCN2CCCCC2)cc1 in the same way.
stdout: 110

###

Test description: AUC(0 to infinity) in Sprague-Dawley rat at 20 mg/kg, po measured upto 24 hrs
Format: ADME, organism-based
Design: dose 20 mg/kg, time < 24 hrs, route po
Condition label: in vivo
Measurement kind: AUC(0-inf) (ng·h/mL)

1. O=C(N/N=C/c1ccc([N+](=O)[O-])s1)c1ccc(OCCCCCCN2CCCCC2)cc1
2. O=C(N/N=C/c1ccc([N+](=O)[O-])o1)c1ccc(OCCCCCCN2CCCCC2)cc1
stdin: Param metric = AUC(0-inf); output whichever of 1 , 2 has the minimum value. Identify your pick by its label.
stdout: 2
(2: 1020 ng·h/mL, 1: 1500 ng·h/mL)

Cited source: ChEMBL document CHEMBL5335769
